B1: library; the commonest letter at each place (parent)
chain: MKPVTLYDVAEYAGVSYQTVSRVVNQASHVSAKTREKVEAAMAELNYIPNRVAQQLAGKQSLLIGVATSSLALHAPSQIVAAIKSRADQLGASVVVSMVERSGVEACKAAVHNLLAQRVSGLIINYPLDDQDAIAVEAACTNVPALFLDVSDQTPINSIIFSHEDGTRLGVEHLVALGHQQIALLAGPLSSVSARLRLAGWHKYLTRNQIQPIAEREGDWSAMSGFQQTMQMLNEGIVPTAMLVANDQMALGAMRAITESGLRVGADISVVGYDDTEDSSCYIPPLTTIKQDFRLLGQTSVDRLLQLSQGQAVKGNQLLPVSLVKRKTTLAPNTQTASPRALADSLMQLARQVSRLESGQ

Variants of: B1
Study Conditions: with IPTG
Assay Metric: EC50 for IPTG (log10 µmol/L)

EC50 for IPTG (log10 µmol/L) for V80L S97T is 1.61

EC50 for IPTG (log10 µmol/L) for V80L A87P V301M E357G is 1.57

EC50 for IPTG (log10 µmol/L) for `M42I` is 2.44

EC50 for IPTG (log10 µmol/L) for M42L V66I S93N D132V is 1.65

EC50 for IPTG (log10 µmol/L) for `D88N` is 2.84

EC50 for IPTG (log10 µmol/L) for `S190C` is 2.09

EC50 for IPTG (log10 µmol/L) for I83M S97T V136E is 2.29

EC50 for IPTG (log10 µmol/L) for `A82V` is 1.93

EC50 for IPTG (log10 µmol/L) for `I83F` is 1.29

EC50 for IPTG (log10 µmol/L) for V99E A116T T141I S190C is 0.86

EC50 for IPTG (log10 µmol/L) for `Q291L` is 2.06

EC50 for IPTG (log10 µmol/L) for Y273H D278G Q335L E357G is 3.07

EC50 for IPTG (log10 µmol/L) for `A82G` is 2.58

EC50 for IPTG (log10 µmol/L) for V96E T154I S158R V238D M254I V264I is 2.37

EC50 for IPTG (log10 µmol/L) for `A194V` is 3.35

EC50 for IPTG (log10 µmol/L) for Q89L S158C E172K Q291H is 2.46

EC50 for IPTG (log10 µmol/L) for S69T S97T is 1.37

EC50 for IPTG (log10 µmol/L) for S70R I83F is 1.24

EC50 for IPTG (log10 µmol/L) for S69T S279T is 1.28

EC50 for IPTG (log10 µmol/L) for S69T L169P is 2.35

EC50 for IPTG (log10 µmol/L) for `N125D` is 2.74

EC50 for IPTG (log10 µmol/L) for S77P E105V is 2.05

EC50 for IPTG (log10 µmol/L) for E36V Q89H D132G A138D E277A Q306E S322T is 2.32

EC50 for IPTG (log10 µmol/L) for E11K A27G K37N H112L A139V S191P is 2.26

EC50 for IPTG (log10 µmol/L) for S93N V99E S102R L198Q S260F A337S is 0.634

EC50 for IPTG (log10 µmol/L) for Q55K G121V N333I is 1.78

EC50 for IPTG (log10 µmol/L) for V80L L169P is 2.47

EC50 for IPTG (log10 µmol/L) for `S69F` is 1.05

EC50 for IPTG (log10 µmol/L) for L56M Q317L is 1.07

EC50 for IPTG (log10 µmol/L) for V94L V99I V104I L307F is 1.47

EC50 for IPTG (log10 µmol/L) for S69F V95A A110E I159S is 1.11

EC50 for IPTG (log10 µmol/L) for V80L I83M is 2.44

EC50 for IPTG (log10 µmol/L) for I83M S97T is 2.18

EC50 for IPTG (log10 µmol/L) for S120G M223L F226L L319F R355L is 2.25

EC50 for IPTG (log10 µmol/L) for `S70R` is 1.42

EC50 for IPTG (log10 µmol/L) for `R51C` is 0.988

EC50 for IPTG (log10 µmol/L) for `V271M` is 2.09

EC50 for IPTG (log10 µmol/L) for L56M A194V is 2.39

EC50 for IPTG (log10 µmol/L) for P285S V301M S308P M347V is 0.927

EC50 for IPTG (log10 µmol/L) for K84E D88Y L90P Q153L A199V L342M R351P S358R is 1.47

EC50 for IPTG (log10 µmol/L) for L90Q L198M E235D T336S is 1.88

EC50 for IPTG (log10 µmol/L) for S69T I83M is 2.29

EC50 for IPTG (log10 µmol/L) for V136E S279T is 0.991

EC50 for IPTG (log10 µmol/L) for V95M Q335R Q360R is 2.01

EC50 for IPTG (log10 µmol/L) for S70R F161V is 2.02

EC50 for IPTG (log10 µmol/L) for V80L I83M S97T is 1.99

// data source = the supplement of paper PMC10057847
